Tested on: HOP-92
Experimental details: NCI tumour cell line growth inhibition, 48 h
Calls of active or inactive are those of the source. Rule as the data show it: active = GI50 up to about 1.1 µM and inactive = higher. Peptide text beside a SMILES is read from it. * marks the point of attachment. Cbz = O=C(OCc1ccccc1)*; Boc = CC(C)(C)OC(=O)*; OBn = c1ccc(CO*)cc1
Quantity measured: GI50

CC1(C)CCCCCCC2CC2CCCCCC(C)(C)C1=O (stereo not given) :: 62.5 µM (inactive)
O=C1c2c[nH]nc2C(c2ccccc2)N1c1ccccc1 (stereo not given) :: > 10 µM (inactive)
COC1OCC(O)C(NC(=O)N(C)N=O)C1O (stereo not given) :: > 100 µM (inactive)
CCCCCCCCCCCCCCCCCCNc1nc(=O)n(C2CC(O)C(COP(=O)(O)OCC(COP(=O)(O)OC3C(CO)OC(n4ccc(N)nc4=O)C3O)OCCCCCCCCCCCCCCCCCC)O2)cc1F (stereo not given) :: > 100 µM (inactive)
COC(=O)C(CCCCNC(=O)OCc1ccccc1)NC(=O)C(CCC(=O)OCc1ccccc1)NC(=O)OC(C)(C)C (stereo not given) (Boc-Glu(OBn)-Lys(Cbz)-OMe; configuration not given here) :: > 100 µM (inactive)
Cc1ccc(N(C(=O)Nc2ccccc2)C2=NCC(C)S2)cc1C (stereo not given) :: 22.5 µM (inactive)
COC1CCC2C(NS(=O)(=O)c3ccc(C)cc3)CCCC2O1.Cc1ccc(S(=O)(=O)NC(C)(C)C=O)cc1 (stereo not given) :: 3.66 µM (inactive)
CC1C[C@@]2(c3ccccc3)C(=O)CCC[C@H]2N1 (stereo not given in full) :: 29.6 µM (inactive)
CC1(C)C2=CCCC(=O)[C@@]2(C)CC[C@@H]1O :: > 100 µM (inactive)
O=C1CSC(=S)N1 [RHODANINE] :: > 100 µM (inactive)

---

Tested on: ACHN
Experimental details: NCI tumour cell line growth inhibition, 48 h
The source made the active and inactive calls. Cut-off read from the data, not from the text of the source: active = GI50 up to about 1.1 µM and inactive = higher.
The entries below are paired with their reported GI50.
Quantity measured: GI50

CC(Oc1ccc(Cl)cc1Cl)C(=O)NN1C(=O)CSC1c1ccccc1 (centres undefined) :: 68.5 µM (inactive)
O=C(/C(=C\I)c1ccccc1)c1ccccc1 :: 13 µM (inactive)
C#CC(O)/C=C/CCCCCCC#CC/C=C\CC#CCCCCCCCCC(O)C#C (centres undefined) :: 12.2 µM (inactive)
CCOC(=O)/C=C(/C(=O)OCC)n1ccc(=O)n(Cc2cnnn2COCCOC(C)=O)c1=O :: 8.73 µM (inactive)
C=C1CC[C@@H](CCC2CCC3(OC2)O[C@]2(O)CC[C@@]3(C)OC2(C)C)C(C)(C)[C@H]1C/C=C1\CCOC1=O (some centres undefined) :: 10.7 µM (inactive)
COC(=O)C1CCC(N2C(=O)CCC2C(=O)OC)=N1 (centres undefined) :: > 100 µM (inactive)
CC1(C)C2=CCCC(=O)[C@@]2(C)CC[C@@H]1O :: > 100 µM (inactive)
COc1ccc(C(=C2C(=O)OC(=O)C2=C(C)C)c2ccc(OC)cc2)cc1 :: > 100 µM (inactive)
COc1c(CC=C(C)C)c(O)c(C(CC(C)C)c2c(O)c(C(C)=O)c(O)c3c2OC(C(C)(C)O)C3)c(O)c1C(C)=O (centres undefined) :: 4.31 µM (inactive)

Measured values drawn from ChEMBL document CHEMBL1201862 for this set.
